- Tested target: soybean LOX-1 (Glycine max)
- Assay procedure: In vitro soybean 15-lipoxygenase (LOX) inhibition assay
- Conditions used: read-out: % Inhibition (100 μg/mL)
Measured parameter: inhibition at 100 µg/mL (%)

| Smiles notation | Tested target | Quantitative readout |
| --- | --- | --- |
| CCCCC(=O)c1c(O)cc(O)c(CC=C(C)C)c1O | soybean LOX-1 (Glycine max) | 79.4 |
| CC(C)=CCc1c(O)cc(O)c(C(=O)C(C)C)c1O | soybean LOX-1 (Glycine max) | 82.5 |
| CC(C)=CCc1c(O)cc(O)c(C(=O)C2CCCCC2)c1O | soybean LOX-1 (Glycine max) | 93.7 |
| CCCC(=O)c1c(O)cc(O)c(CC=C(C)C)c1O | soybean LOX-1 (Glycine max) | 86.2 |
| CCCC(=O)c1c(O)cc(O)c(C/C=C(\C)CCC=C(C)C)c1O | soybean LOX-1 (Glycine max) | 90.7 |
| CC(=O)c1c(O)cc(O)c(CC=C(C)C)c1O | soybean LOX-1 (Glycine max) | 94.8 |
| CC(C)=CCc1c(O)cc(O)c(C(=O)/C=C/c2ccccc2)c1O | soybean LOX-1 (Glycine max) | 95.2 |
| CCC(=O)c1c(O)cc(O)c(CC=C(C)C)c1O | soybean LOX-1 (Glycine max) | 78.1 |

====

Form field: melting point (one value per entry).

Reference set (6 entries):
| Smiles notation | melting point |
| --- | --- |
| CCC(=O)c1c(O)cc(O)c(CC=C(C)C)c1O | 138 to 140 °C |
| CCCC(=O)c1c(O)cc(O)c(C/C=C(\C)CCC=C(C)C)c1O | 116 to 118 °C |
| CCCCC(=O)c1c(O)cc(O)c(CC=C(C)C)c1O | 133 to 135 °C |
| COc1cc(OC)c(C(C)=O)c(O)c1C/C=C(\C)CCC=C(C)C | 72 to 74 °C |
| CCCCC(=O)c1c(OC)cc(OC)c(CC=C(C)C)c1O | 84 to 86 °C |
| CC(C)=CCc1c(O)cc(O)c(C(=O)/C=C/c2ccccc2)c1O | 203 to 205 °C |

# next molecule below
Data request: Returns the measured melting point for the input molecule. Input: COc1cc(OC)c(C(C)=O)c(O)c1CC=C(C)C
Data returned: 97 to 99 °C

====

- Tested target: soybean LOX-1 (Glycine max, UniProt P08170)
- Assay procedure: In vitro soybean 15-lipoxygenase (LOX) inhibition assay
- Protocol: Briefly, sodium phosphate buffer (160 μL, 100 mM, pH 8.0), test sample (10 μL), and soybean 15-LOX (1.13.11.12) type I-B solution (20 μL, 320 U/well) were mixed and incubated at room temperature for 15 min. […] End product from the enzymatic conversion was measured at absorbance of 234 nm over a period of 6 min and the assay was performed in triplicate. […] IC50 values were calculated by the nonlinear regression fitting curve of GraphPad Prism 5. […]
Measured parameter: IC50 (µM)

Reference set (5 entries):
| Smiles notation | Quantitative readout |
| --- | --- |
| CC(C)=CCc1c(O)cc(O)c(C(=O)C2CCCCC2)c1O | 52.6 |
| CC(C)=CCc1c(O)cc(O)c(C(=O)/C=C/c2ccccc2)c1O | 95.4 |
| CCC(=O)c1c(O)cc(O)c(CC=C(C)C)c1O | 61 |
| CC(C)=CCc1c(O)cc(O)c(C(=O)C(C)C)c1O | 53.7 |
| CCCC(=O)c1c(O)cc(O)c(CC=C(C)C)c1O | 39.5 |

[1] CCCC(=O)c1c(O)cc(O)c(C/C=C(\C)CCC=C(C)C)c1O
[2] CC(=O)c1c(O)cc(O)c(CC=C(C)C)c1O
[3] CCCCC(=O)c1c(O)cc(O)c(CC=C(C)C)c1O
Data request: Rank order required: IC50, descending. // list labels; follow requested order
Data returned: 2, 3, 1
(2: 72.1 µM, 3: 35.1 µM, 1: 15.3 µM)

====

- Tested target: UniProt P08170
- Sequence (P08170 1-839): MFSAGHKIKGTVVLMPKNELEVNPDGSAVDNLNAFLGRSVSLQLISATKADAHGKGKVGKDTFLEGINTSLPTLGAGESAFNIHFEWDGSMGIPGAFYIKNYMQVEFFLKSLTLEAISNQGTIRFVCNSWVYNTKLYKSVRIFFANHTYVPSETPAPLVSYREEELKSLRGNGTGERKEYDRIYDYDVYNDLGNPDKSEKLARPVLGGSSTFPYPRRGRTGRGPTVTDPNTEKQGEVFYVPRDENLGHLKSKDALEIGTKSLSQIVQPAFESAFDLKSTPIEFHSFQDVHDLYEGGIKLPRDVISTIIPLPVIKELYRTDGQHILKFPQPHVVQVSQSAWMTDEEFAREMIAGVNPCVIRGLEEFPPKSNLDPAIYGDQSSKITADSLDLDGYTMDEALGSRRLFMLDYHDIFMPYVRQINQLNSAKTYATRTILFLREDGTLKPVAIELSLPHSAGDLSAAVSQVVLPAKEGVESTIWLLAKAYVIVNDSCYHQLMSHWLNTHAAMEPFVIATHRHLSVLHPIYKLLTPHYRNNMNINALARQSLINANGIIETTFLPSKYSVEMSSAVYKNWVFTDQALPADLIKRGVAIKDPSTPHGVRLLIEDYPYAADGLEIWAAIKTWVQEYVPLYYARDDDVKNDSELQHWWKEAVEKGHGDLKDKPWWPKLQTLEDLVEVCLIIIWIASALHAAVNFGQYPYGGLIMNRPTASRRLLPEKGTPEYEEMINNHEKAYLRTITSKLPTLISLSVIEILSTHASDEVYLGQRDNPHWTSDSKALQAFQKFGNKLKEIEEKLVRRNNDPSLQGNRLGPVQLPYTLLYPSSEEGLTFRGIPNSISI
- Assay procedure: Enzyme kinetics study (Michaelis–Menten, Lineweaver–Burk)
- Type: biochemical
- Design: purchased
- Conditions used: from slope of Lineweaver–Burk plot vs inhibitor concentration; read-out: Ki (inhibitor constant)
pKi: −log10 of the molar value.
Measured parameter: pKi

| Compound | Measured parameter | Quantitative readout |
| --- | --- | --- |
| CC(=O)c1c(O)cc(O)c(C/C=C(\C)CCC=C(C)C)c1O [Compound 3a, 2,4,6-Trihydroxy-3-geranylacetophenone] | pKi | 4.39 |
| CCCCC(=O)c1c(O)cc(O)c(C/C=C(\C)CCC=C(C)C)c1O | pKi | 4.44 |
